This collection of values is drawn from patent US20240317721A1.

- target.of.assay: KRasG12C (M1-K169, biotinylated on the N-terminus) (Homo sapiens (Human), UniProt P01116, G12C)
- test.details: Covalent competition assay: scintillation proximity assay (SPA) quantifying covalent modification of KRASG12C
- details: competition with radiolabeled covalent probe (Compound B/Compound A), 2 hours incubation, 10 nM KRasG12C
- Description: Cells were harvested by centrifugation and frozen at −80° C. until further processing. […] The cells were lysed by 4 passages through an Avestin Emulsiflex at about 20000 psi and insoluble debris removed by centrifugation and filtered through a 0.45 µm Durapore membrane (Millipore). […] Eluted protein fractions were analyzed by Novex NuPage 4-12% PAGE. […] Positive fractions were determined by PAGE (Novex NuPage 4-12% BisTris) analysis. […]
measured.endpoint: IC50

Below: 2 compounds and their reported IC50.
>  <compound>
C=CC(=O)N1CC2(CC(n3nc(N4CCC(C(=O)N5CCN(C)CC5)CC4(C)C)c(-c4c(Cl)c(Cl)cc5[nH]ncc45)c3C)C2)C1 (single isomer, unassigned) [Example 211a]

>  <result>
1.6 µM

$$$$
>  <compound>
C=CC(=O)N1CC2(CC(n3nc(N4CCN(CC5(O)CC5)CC45CCC5)c(-c4c(Cl)c(C)cc5[nH]ncc45)c3C)C2)C1 (single isomer, unassigned) [Example 154a]

>  <result>
> 5 µM

$$$$

// switching to the query compound
Enquiry: Need IC50 of C=CC(=O)N1CC2(CC(n3nc(N4CCN(C5COC5)CC4(CC)CC)c(-c4c(Cl)c(C)cc5[nH]ncc45)c3C)C2)C1 (single isomer, unassigned) [Example 152b] , thanks.
Return: 0.045 µM
